# protocol-summary: Quantitative highthroughput screen to assess conditional lethalithy of SEM cells grown in RPMI1640 with unreated serum (RPMI+s) (AID 1963883); further: nearly all actives have a fitted effect of over 35% in size;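 on viability: 100% = DMSO wells and 0% = empty wells without cells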
# experimental-context: SEM B-ALL cells, CellTiter-Glo viability, 48 h; series mostly up to 45.8 µM
Inconclusive results are not listed. Calls of active or inactive are those of the source. The call rests on the fitted dose curve; in most records, active means well fitted cell-killing curve with a large enough effect; inconclusive means small, poorly fitted or top-dose-only effect, or effect the other way; inactive means no such curve, though single readings can be large or run the other way.
# valid calls are Yes (active), No (inactive); nothing else

q: Dear colleague, could you share the recorded outcome for `c1cc(CN2CCCNCCNCCCNCC2)ccc1CN1CCCNCCNCCCNCC1` when you have a moment?
a: No

q: Dear colleague, could you share the recorded outcome for `C=CC(=O)N1CCc2ccc(-n3c(=O)ccc4cnc5ccc(-c6cnn(C)c6)cc5c43)cc21` when you have a moment?
a: Yes

q: Dear colleague, could you share the recorded outcome for `CC(=O)NCCC(=O)N[C@@H](CCC(N)=O)C(=O)N[C@@H](CO)C(=O)N[C@@H](CCC(N)=O)C(=O)N[C@@H](CCC(N)=O)C(=O)N[C@H](C(=O)N[C@@H](Cc1ccccc1)C(=O)N[C@]1(C)CCCCCCC=CCCC[C@@](C)(C(=O)N[C@@H](CCC(N)=O)C(=O)N[C@@H](CC(N)=O)C(N)=O)NC(=O)[C@H](CC(C)C)NC(=O)[C@H](CC(C)C)NC(=O)[C@@H](CCCNC(=N)N)NC(=O)[C@H](Cc2c[nH]c3ccccc23)NC(=O)[C@H](CC(C)C)NC(=O)[C@H](CC(N)=O)NC1=O)[C@H](C)O` when you have a moment?
a: Yes

q: Dear colleague, could you share the recorded outcome for `OC[C@H]1O[C@@H](Oc2cc(O)cc(C=Cc3ccc(O)cc3)c2)[C@H](O)[C@@H](O)[C@H]1O` when you have a moment?
a: No

q: Dear colleague, could you share the recorded outcome for `O=C(Nc1cccnn1)N1CCC(=Cc2cccc(Oc3ccc(C(F)(F)F)cn3)c2)CC1` when you have a moment?
a: No

q: Dear colleague, could you share the recorded outcome for `COc1ccc(-c2oc3cc(OC)ccc3c2C(=O)c2ccc(C#N)cc2)cc1` when you have a moment?
a: No

q: Dear colleague, could you share the recorded outcome for `CC(C)N(CCCNC(=O)Nc1ccc(C(C)(C)C)cc1)C[C@H]1O[C@@H](n2cc(Br)c3c(N)ncnc32)[C@H](O)[C@H]1O` when you have a moment?
a: Yes

q: Dear colleague, could you share the recorded outcome for `CS(=O)(=O)c1ccc(C2=C(c3ccccc3)C(=O)OC2)cc1` when you have a moment?
a: Yes

q: Dear colleague, could you share the recorded outcome for `O=C(CN1C(=O)C2(CCCC2)NC[C@H]1c1cc(F)cc(F)c1)Nc1ccc2c(c1)C[C@@]1(C2)C(=O)Nc2ncccc21` when you have a moment?
a: No

q: Dear colleague, could you share the recorded outcome for `CCOC(=O)N1c2ccc(C(F)(F)F)cc2[C@@H](N(Cc2cc(C(F)(F)F)cc(C(F)(F)F)c2)C(=O)OC)C[C@H]1CC` when you have a moment?
a: No

q: Dear colleague, could you share the recorded outcome for `CN[C@@H]1CN(c2ccc3c(=O)c(C(=O)O)cn(-c4nccs4)c3n2)C[C@@H]1OC` when you have a moment?
a: Yes

q: Dear colleague, could you share the recorded outcome for Nc1nc(N)c2nc(CNc3ccc(C(=O)NC(CCC(=O)O)C(=O)O)cc3)cnc2n1 (stereo not given) when you have a moment?
a: Yes

q: Dear colleague, could you share the recorded outcome for `Cc1ccc(CN2CCNCC2)cc1NC(=O)CNc1ccc(F)c(F)c1` when you have a moment?
a: No

q: Dear colleague, could you share the recorded outcome for `Cc1cn2c(-c3cn[nH]c3)cnc2c(Nc2ccc(C(=O)N3CCNCC3)cc2F)n1` when you have a moment?
a: Yes

q: Dear colleague, could you share the recorded outcome for `O=NN(CCCl)C(=O)NC1CCCCC1` when you have a moment?
a: No

###

# protocol-summary: Cellular viability qHTS for adrenocortical cancer (ACC) cell line SW-13 (AID 1963989);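 further: cells grown in serum-free medium with ITS supplement; on the % scale 0 is the no-effect control and ±100 the full control effect; nearly all actives have a fitted effect of over 65% in size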
# experimental-context: SW-13 ACC cells viability, CellTiter-Glo, 48 h; active compounds read low
Results filed as inconclusive are left out. Calls of active or inactive are those of the source. The call rests on the fitted dose curve; in most records, active means well fitted cell-killing curve with a large enough effect; inconclusive means small, poorly fitted or top-dose-only effect; inactive means flat fitted curve, though single readings scatter.
recorded-endpoint: activity (max response)

Lookup result for `O=C1C[C@@H](c2ccc(O)cc2)Oc2cc(O)cc(O)c21` ; measured activity (max response): -16.9% (inactive)

Lookup result for `CCn1cc(C(=O)O)c(=O)c2cc(F)c(N3CCNCC3)nc21` ; measured activity (max response): 4.85% (inactive)

Lookup result for `CCOC(=O)C(=O)CCCCCCl` ; measured activity (max response): 1.38% (inactive)

Lookup result for `O=C(/C=C/c1ccc(/C=C/C(=O)Nc2ccc(C3=NCCN3)cc2)cc1)Nc1ccc(C2=NCCN2)cc1` ; measured activity (max response): -13% (inactive)

Lookup result for `CC(C)(C)C(=O)OCOC(=O)[C@@H]1N2C(=O)[C@@H](NC(=O)[C@H](N)c3ccccc3)[C@H]2SC1(C)C` ; measured activity (max response): 8.43% (inactive)

Lookup result for `O=[N+]([O-])c1cccc(S(=O)(=O)NCCNS(=O)(=O)c2cccc([N+](=O)[O-])c2)c1` ; measured activity (max response): -5.4% (inactive)

Lookup result for `O=C(O)c1ccc(OCCCOc2ccc(C(=O)O)cc2)cc1` ; measured activity (max response): 5.44% (inactive)

Lookup result for `COc1ccc(-c2oc3c(CC=C(C)C)c(O)cc(O)c3c(=O)c2O)cc1` ; measured activity (max response): -11% (inactive)

Lookup result for `COc1ccnc2[nH]cc(C(=O)C(=O)N3CCN(C(=O)c4ccccc4)C[C@H]3C)c12` ; measured activity (max response): 1.31% (inactive)

Lookup result for `CCCCNC(=O)NS(=O)(=O)c1ccc(N)cc1` ; measured activity (max response): 0.545% (inactive)

###

# protocol-summary: Viability qHTS for spleen associated tyrosine kinase inhibitor (SYKi) drug resistant MV4-11 cells (AID 1963824); further: nearly all actives have a fitted effect of over 35% in size
# experimental-context: SYKi-resistant MV4-11 viability, CellTiter-Glo, 72 h; series mostly up to 45 µM
Records with an inconclusive call do not appear. Calls of active or inactive are those of the source. Calls follow the shape of the dose curve; as a rule, active = well fitted cell-killing curve with a large enough effect; inconclusive = small, poorly fitted or top-dose-only effect, or effect the other way; inactive = no such curve, though single readings can be large or run the other way.
# valid calls are active, inactive; nothing else

q: Dear colleague, could you share the recorded outcome for CC1(C)CC[C@]2(C(=O)O[C@@H]3O[C@H](CO)[C@@H](O)[C@H](O)[C@H]3O)CC[C@]3(C)C(=CCC4[C@@]5(C)C[C@@H](O)[C@H](O)C(CO)(CO)C5CC[C@]43C)C2[C@@H]1O (stereo partly specified) when you have a moment?
a: inactive

q: Dear colleague, could you share the recorded outcome for `COC1=CC(=O)O[C@@H](CCc2ccccc2)[C@@H]1O` when you have a moment?
a: inactive

q: Dear colleague, could you share the recorded outcome for `Oc1ccc(C2CCN(c3ccnc4ccccc34)CC2)cc1O` when you have a moment?
a: active

q: Dear colleague, could you share the recorded outcome for `CC1(C)OC[C@@H]2O[C@@]3(C(=O)O)OC(C)(C)O[C@H]3[C@@H]2O1` when you have a moment?
a: inactive

q: Dear colleague, could you share the recorded outcome for `CC(C)c1ccc(NC(=O)c2cccs2)c(-c2nc3ccccc3[nH]c2=O)c1` when you have a moment?
a: active

q: Dear colleague, could you share the recorded outcome for `CCCCCCCCCCCCCCCC(=O)O` when you have a moment?
a: inactive

q: Dear colleague, could you share the recorded outcome for `CC(C)CC[C@@H](O)[C@](C)(O)[C@H]1CC[C@@]2(O)C3=CC(=O)[C@@H]4C[C@@H](O)[C@@H](O)C[C@]4(C)[C@H]3CC[C@]12C` when you have a moment?
a: inactive

q: Dear colleague, could you share the recorded outcome for `CSc1ccc(C(=O)c2[nH]c(=O)[nH]c2C)cc1` when you have a moment?
a: inactive

q: Dear colleague, could you share the recorded outcome for `CO[C@@H]1[C@@H](OC(N)=O)[C@@H](O)[C@H](Oc2ccc3c(O)c(NC(=O)c4ccc(O)c(CC=C(C)C)c4)c(=O)oc3c2C)OC1(C)C` when you have a moment?
a: inactive

q: Dear colleague, could you share the recorded outcome for CCc1ccc2nc(Nc3cc(Cc4ccccc4)nc(NC4CCC(O)CC4)n3)sc2c1 (stereo unspecified) when you have a moment?
a: active

q: Dear colleague, could you share the recorded outcome for `COc1c(Nc2ncc(Cl)c(N[C@H]3[C@@H](C(N)=O)[C@@H]4C=C[C@H]3C4)n2)ccc2c1CC[C@@H](N1CCOCC1)CC2` when you have a moment?
a: active

q: Dear colleague, could you share the recorded outcome for `FC(F)(F)Oc1ccc(-c2ccc3nnc(C(F)(F)F)n3c2)cc1` when you have a moment?
a: inactive

q: Dear colleague, could you share the recorded outcome for `CS(=O)(=O)c1ccc([C@@H](C[C@H]2CCC(=O)C2)C(=O)Nc2cnccn2)cc1Cl` when you have a moment?
a: active

q: Dear colleague, could you share the recorded outcome for `COc1cc(OC)c(C(=O)/C=C/c2ccccc2)c2c1C=CC(C)(C)O2` when you have a moment?
a: active

q: Dear colleague, could you share the recorded outcome for `O=C(O)c1ccc2cc(-c3ccc(O)c(C45CC6CC(CC(C6)C4)C5)c3)ccc2c1` when you have a moment?
a: active

q: Dear colleague, could you share the recorded outcome for `C[C@]12CC/C(=N\OCC(=O)O)C=C1CC[C@@H]1[C@@H]2[C@@H](O)C[C@@]2(C)[C@H]1CC[C@]2(O)C(=O)CO` when you have a moment?
a: inactive

q: Dear colleague, could you share the recorded outcome for `CC(=O)OCC(=O)[C@@]12O[C@@H]1C[C@H]1[C@@H]3CC=C4C[C@@H](O)CC[C@]4(C)[C@H]3CC[C@@]12C` when you have a moment?
a: active

q: Dear colleague, could you share the recorded outcome for `O=C1COc2nccc(-c3ccccc3F)c2CN1Cc1cc(C(F)(F)F)cc(C(F)(F)F)c1` when you have a moment?
a: active

q: Dear colleague, could you share the recorded outcome for CC(C)C(N)C(=O)OCCOCn1cnc2c(=O)[nH]c(N)nc21 (stereo unspecified) when you have a moment?
a: inactive

q: Dear colleague, could you share the recorded outcome for `c1ccc2c(CC3=NCCN3)cccc2c1` when you have a moment?
a: active

q: Dear colleague, could you share the recorded outcome for `O=C(CCCCCCC(=O)Nc1ccc([C@H]2O[C@@H](CSc3nc(-c4ccccc4)c(-c4ccccc4)o3)C[C@@H](c3ccc(CO)cc3)O2)cc1)NO` when you have a moment?
a: active

q: Dear colleague, could you share the recorded outcome for `NC(=O)c1ccccc1O` when you have a moment?
a: inactive

q: Dear colleague, could you share the recorded outcome for `OC[C@H]1O[C@@H](Oc2cc(O)c3c(c2)O[C@@H](c2ccc(O)cc2)[C@H](O)C3)[C@H](O)[C@@H](O)[C@@H]1O` when you have a moment?
a: inactive

q: Dear colleague, could you share the recorded outcome for CC(N)C1CCC(C(=O)Nc2ccncc2)CC1 (stereo unspecified) when you have a moment?
a: inactive

q: Dear colleague, could you share the recorded outcome for `COCCNCc1ccc(-c2cc3nccc(Oc4ccc(NC(=S)NC(=O)Cc5ccc(F)cc5)cc4F)c3s2)nc1` when you have a moment?
a: active

q: Dear colleague, could you share the recorded outcome for O=C(CCCCCCC(=O)Nc1ccc(C2OC(CSc3nc(-c4ccccc4)c(-c4ccccc4)o3)CC(c3ccc(CO)cc3)O2)cc1)NO (stereo unspecified) when you have a moment?
a: active

q: Dear colleague, could you share the recorded outcome for `c1ccc(Nc2nc3c(s2)CCCc2[nH]ncc2-3)nc1` when you have a moment?
a: active

q: Dear colleague, could you share the recorded outcome for `CC(=O)O[C@@H]1[C@@H](O)[C@H](C)O[C@@H](O[C@H]2[C@@H]3C=CO[C@@H](O[C@@H]4O[C@H](CO)[C@@H](O)[C@H](O)[C@H]4O)[C@@H]3[C@@]3(CO)O[C@@H]23)[C@@H]1OC(=O)/C=C/c1ccccc1` when you have a moment?
a: inactive

q: Dear colleague, could you share the recorded outcome for `CCC(CC)(NC(=O)C(C)C)C(=O)N[C@@H](CCCN=C(N)N)C(=O)NC1(C(=O)NC(c2ccc(F)cc2)c2ccc(F)cc2)CCCC1` when you have a moment?
a: inactive

q: Dear colleague, could you share the recorded outcome for `COc1ccc(CN(CCN(C)C)c2ncccn2)cc1` when you have a moment?
a: inactive

q: Dear colleague, could you share the recorded outcome for `NC/C=C/C(=O)O` when you have a moment?
a: inactive

q: Dear colleague, could you share the recorded outcome for `CCC(=O)Nc1ccc(O)cc1` when you have a moment?
a: inactive

q: Dear colleague, could you share the recorded outcome for `OCc1ccc(-c2ccc(-c3ccc(CO)s3)o2)s1` when you have a moment?
a: active

q: Dear colleague, could you share the recorded outcome for `O=C(O)Cc1cn([C@@H]2OC[C@@H](O[C@@H]3O[C@H](CO)[C@@H](O)[C@H](O)[C@H]3O)[C@H](O)[C@H]2O[C@@H]2O[C@H](CO)[C@@H](O)[C@H](O)[C@H]2O)c2ccccc12` when you have a moment?
a: inactive

q: Dear colleague, could you share the recorded outcome for C=C1OC2CC(C(=O)O)C=CC2NC1=O (stereo unspecified) when you have a moment?
a: active

q: Dear colleague, could you share the recorded outcome for `CC(C)c1cc(C(=O)N2CC[C@H](NC(=O)C3CC3)C2)n[nH]1` when you have a moment?
a: inactive
